- TARGET_UNDER_TEST: human P2X2/3 receptor (Homo sapiens, UniProt P56373+Q9UBL9)
- Construct: expressed in transfected cells; host or cells: CHO-K1
- Sequence (Q9UBL9 whole entry): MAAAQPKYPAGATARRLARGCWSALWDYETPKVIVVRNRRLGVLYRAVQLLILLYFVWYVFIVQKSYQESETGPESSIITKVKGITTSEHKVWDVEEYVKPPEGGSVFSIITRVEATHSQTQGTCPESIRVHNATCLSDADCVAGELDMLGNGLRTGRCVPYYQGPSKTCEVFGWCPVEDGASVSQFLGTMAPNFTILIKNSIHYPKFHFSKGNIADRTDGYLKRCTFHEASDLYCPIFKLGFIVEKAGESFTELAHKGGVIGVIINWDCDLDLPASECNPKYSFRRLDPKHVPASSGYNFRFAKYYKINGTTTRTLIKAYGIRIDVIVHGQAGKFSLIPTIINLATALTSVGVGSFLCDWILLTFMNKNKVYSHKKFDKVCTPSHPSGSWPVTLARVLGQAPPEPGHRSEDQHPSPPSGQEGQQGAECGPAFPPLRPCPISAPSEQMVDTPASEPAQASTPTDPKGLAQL
- Sequence (P56373 whole entry): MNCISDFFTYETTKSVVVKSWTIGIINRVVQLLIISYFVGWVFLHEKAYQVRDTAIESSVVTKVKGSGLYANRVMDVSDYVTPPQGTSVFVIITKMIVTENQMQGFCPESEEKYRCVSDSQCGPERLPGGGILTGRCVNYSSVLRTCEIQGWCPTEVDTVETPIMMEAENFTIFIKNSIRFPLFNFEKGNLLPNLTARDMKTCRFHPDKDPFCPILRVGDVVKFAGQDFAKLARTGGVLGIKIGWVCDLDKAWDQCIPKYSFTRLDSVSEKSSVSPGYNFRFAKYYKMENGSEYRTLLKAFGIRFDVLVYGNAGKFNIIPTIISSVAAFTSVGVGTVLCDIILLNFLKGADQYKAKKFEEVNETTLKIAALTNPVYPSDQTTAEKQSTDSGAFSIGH
- ASSAY_PROTOCOL: P2X2/3 FLIPR (Fluorometric Imaging Plate Reader) assay
- Format: cell-based
- MEASUREMENT_SETUP: CHO-K1 cells transfected with human P2X2/3; agonist α,β-meATP 5 μM; Fluo-3 calcium fluorescence
The following compounds are listed with their measured pKi P2X2/3 values.
Hey, just send me the number, nothing else.

The cases that follow already have their pKi P2X2/3 on record.
{"columns": ["ITEM_SMILES", "pKi P2X2/3"],
 "data": [
  ["COCCn1ncc2c(-c3ccc(C)cn3)cc(C(=O)NCc3cnc(C)cn3)cc21", 5],
  ["Cc1ccc(-c2cc(C(=O)N[C@@H](C)CO)cc3c2cnn3-c2ccccc2)nc1", 5.34],
  ["Cc1ccc(-c2cc(C(=O)NCc3ccc(C)nn3)cc3c2cnn3CCC(C)C)nc1", 6.23]
]}

Req: pKi P2X2/3 lookup needed for Cc1ccc(-c2cc(C(=O)NCc3cnc(C)cn3)cc3c2cnn3C(C)C)nc1 , thanks.
Resp: 4.92
